Where do the numbers come from? From patent US8426408B2.

# targetOrSystem: KDR (Homo sapiens)
# Sequence (P35968 20-1356): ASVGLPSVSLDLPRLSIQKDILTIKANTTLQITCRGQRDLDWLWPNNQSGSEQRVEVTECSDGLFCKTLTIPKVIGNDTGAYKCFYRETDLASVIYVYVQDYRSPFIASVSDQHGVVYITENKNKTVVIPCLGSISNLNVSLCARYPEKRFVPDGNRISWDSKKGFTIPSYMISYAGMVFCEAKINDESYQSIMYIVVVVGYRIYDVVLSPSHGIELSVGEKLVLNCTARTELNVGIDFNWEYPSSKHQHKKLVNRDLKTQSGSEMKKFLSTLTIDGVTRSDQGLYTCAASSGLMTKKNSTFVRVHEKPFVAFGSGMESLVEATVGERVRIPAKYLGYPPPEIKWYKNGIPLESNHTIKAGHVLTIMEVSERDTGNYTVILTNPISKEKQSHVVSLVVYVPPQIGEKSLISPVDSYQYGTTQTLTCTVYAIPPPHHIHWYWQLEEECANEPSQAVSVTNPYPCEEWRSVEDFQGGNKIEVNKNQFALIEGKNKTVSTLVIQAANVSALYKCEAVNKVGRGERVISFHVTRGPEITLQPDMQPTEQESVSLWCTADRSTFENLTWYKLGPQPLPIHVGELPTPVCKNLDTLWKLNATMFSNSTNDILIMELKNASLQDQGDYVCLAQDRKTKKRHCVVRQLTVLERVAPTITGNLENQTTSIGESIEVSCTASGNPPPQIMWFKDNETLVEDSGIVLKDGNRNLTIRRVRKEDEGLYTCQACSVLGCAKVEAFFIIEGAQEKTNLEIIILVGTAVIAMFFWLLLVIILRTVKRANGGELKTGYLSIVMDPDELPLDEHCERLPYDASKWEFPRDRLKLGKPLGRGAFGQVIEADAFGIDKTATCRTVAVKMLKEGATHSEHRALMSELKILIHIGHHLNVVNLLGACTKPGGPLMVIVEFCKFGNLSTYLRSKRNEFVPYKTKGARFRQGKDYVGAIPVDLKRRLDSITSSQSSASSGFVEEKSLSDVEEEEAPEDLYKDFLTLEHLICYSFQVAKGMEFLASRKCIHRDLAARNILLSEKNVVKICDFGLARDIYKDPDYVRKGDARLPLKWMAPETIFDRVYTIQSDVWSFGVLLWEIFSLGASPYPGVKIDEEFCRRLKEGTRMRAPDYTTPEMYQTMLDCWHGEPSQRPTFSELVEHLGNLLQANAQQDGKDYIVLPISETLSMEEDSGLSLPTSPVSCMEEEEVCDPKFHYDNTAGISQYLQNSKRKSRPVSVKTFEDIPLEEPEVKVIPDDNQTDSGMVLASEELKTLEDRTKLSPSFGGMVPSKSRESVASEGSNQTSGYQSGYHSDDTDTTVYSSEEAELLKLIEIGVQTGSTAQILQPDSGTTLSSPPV
# experimentalProtocol: KDR cellular assay (KDR receptor phosphorylation ELISA)
# assaySetup: KDR transfected 3T3 (embryonic mouse) cells, VEGF stimulated; read-out: IC50 inhibition of KDR phosphorylation
observationType: IC50

Name the recorded IC50 of CCn1cc(Nc2ncc(Cl)c(N[C@H]3[C@@H](C(N)=O)[C@@H]4C=C[C@H]3C4)n2)cn1 (racemic) [Example 30] , assay system KDR (Homo sapiens). < 100 nM

Provide measured IC50 on KDR (Homo sapiens) for NC(=O)[C@@H]1[C@H](Nc2nc(Nc3cnn(Cc4ccccc4Cl)c3)ncc2Br)[C@H]2C=C[C@@H]1C2 [Example 171] please. < 100 nM

Determine reported IC50 for NC(=O)[C@H]1[C@@H]2CC[C@@H](C2)[C@H]1Nc1nc(Nc2cnn(CCO)c2)ncc1Cl [Example 93] ; test system: KDR (Homo sapiens). 100 to 1000 nM

Report value only: IC50, KDR (Homo sapiens), Cc1cccc(Cn2cc(Nc3ncc(Cl)c(N[C@H]4[C@@H](C(N)=O)[C@@H]5C=C[C@H]4C5)n3)cn2)c1 [Example 178] < 100 nM

Give IC50 only, for CC(C)n1cc(Nc2ncc(Br)c(N[C@H]3[C@@H](C(N)=O)[C@@H]4C=C[C@H]3C4)n2)cn1 [Example 112] , using KDR (Homo sapiens) data. < 100 nM

Fill in: IC50 on KDR (Homo sapiens), entry Cn1cc(Nc2ncc(Cl)c(N[C@@H]3CC=CC[C@@H]3C(N)=O)n2)cn1.Cn1cc(Nc2ncc(Cl)c(N[C@H]3CC=CC[C@H]3C(N)=O)n2)cn1 (mixture of isomers) [Example 146] 100 to 1000 nM

Quote IC50 with test system KDR (Homo sapiens) for Cn1cc(Nc2ncc(C(F)(F)F)c(Nc3ccccc3C3(O)CCC3)n2)cn1 [Example 115] 100 to 1000 nM
